Assay: yeast display, Sf9 membrane polyspecificity reagent, FACS + sequencing; frameworks hold sequencing errors
PARAMETER: polyreactivity (PSR sort gate)

Use the examples below as a reference point.
[[record]]
construct_sequence = "QVQLEESGGGLVQAGGSLRLSCAASGSTFGKNAMGWYRQAPGKERELVASITWRGGSTYYADSVKGRFTISRDNAKNTVYLQMNSLKPEDTAVYYCAADYVVSAFDYWGQGTQVTVSS"
recorded_measurement = "low polyreactivity"

[[record]]
construct_sequence = "QVQLVESGGGLVQAGGSLRLSCAASGRIFQSNAMGLYRQAPGKERELVAAISYSGGGSTYYADSVNGRFTISRDNAKNTVYLQMNSLKPEDTAVYYCAARRVGGCFYTWRNPAYEYWGQGTQVTVSS"
recorded_measurement = "high polyreactivity"

[[record]]
construct_sequence = "QVQLVESGGGLVQAGGSLRLSCAASGSTFFRYAMGWYRQAPGKERELVAAITSGGNTYYADSVKGRFTISRDNAKNTVYLQMNSLKPEDSAVYYCAADVYHWIHEYDYWGQGTQVTVSS"
recorded_measurement = "low polyreactivity"

[[record]]
construct_sequence = "QVQLVESGGGLVQAGGSLRLSCAASGRSFYRYVMGWYRQAPGTERELVAAMTWSGGSTYYADSVKGRFTISRDNAKNTVYLQMNSLKPEDTAVYYCAADWSTWGVDYWGQGTQVTVSS"
recorded_measurement = "low polyreactivity"

[[record]]
construct_sequence = "QVQLVESGGGLVQAGGSLRLSCAASGRISQYNAMGWYRQAPGKERELVATITRGGSTYYADSVKGRFTISRDNAKNTVYLQMNSLKPEDTAVYYCATDRYWWSGFDYWGQGTQVTVSS"
recorded_measurement = "high polyreactivity"

[[record]]
construct_sequence = "QVQLVESGAGVVQAGGSLRLSCAASGFTLHSYAMGWYRQAPGKERELVAAITRSGGGTYYADSVKGRFTISRDNAKKTVYLQMNSLKPEDTAVYYCAARFGGQYQHDYWGQGTQVTVSS"
recorded_measurement = "high polyreactivity"

[[record]]
construct_sequence = "QVQLVESVGVLVQAGGSLRLSCAASGRTFYRNAVGWYRQAPGKERELVAAISRSGTRTYYADSVKGRFTISRDNATNTVYLQMNSLKPEDTAVYYCNALRVDGGDYWGQGTQVTVSS"
recorded_measurement = "high polyreactivity"

[[record]]
construct_sequence = "QVQLVESGGGLVQAGGSLRLSCPASGFNFLYYAMGWYRQAPGTEREFVAAIRSSGTTTSYADSVKGRFTISRDNAKNTVYLEMISLKPVDTAVYYCAAGYFGPQQYYYWGQGSQVTVSS"
recorded_measurement = "high polyreactivity"

[[record]]
construct_sequence = "QCQREESGGGLVQAGGRLRLSCAASGLILIYYAMGWYRQAPGKERELVAAITSSGGSTYYADSVKGRFTISRDNAKNTVYLQMNSLKREDTAVYYCAAYYSGDGYYWGQGTQVTVSS"
recorded_measurement = "high polyreactivity"

[[record]]
construct_sequence = "QVQLQESGGGLMQAGGNLRLSCAASGYISTHYDMDWYRQAPGKERELVARIDDGAITNYADSVKGRFTISRDNAKNTVYLQMNSLKPEDTAVYYCAVSSGDDYYHDYWGQGTQVTVSS"
recorded_measurement = "low polyreactivity"


Proceed to the following item.
Indicate its recorded polyreactivity (PSR sort gate); the sequence in question is `QVQHVESGGGLVQAGGSLRLSCASSGRIFPTNAMGWSRQAPGKDRELVASITRSGSTYYADSVKGRFTISRDNAKNTVYLQMNSLKPEDTAVYNCAAYAYIFMDWGGYPYYLYEYEYLGQGTQVTVSS`
low polyreactivity

Each recorded value in this set is attributed to the nanobody polyreactivity screen of Harvey et al. (2022).
